# tested target: Carbonic anhydrase 9 (Homo sapiens, UniProt Q16790)
# test details: Inhibition of human carbonic anhydrase 9 assessed as reduction in CO2 hydration incubated for 1 hr by phenol red staining-based stopped flow assay
pKi: −log10 of the molar value.
endpoint name: pKi

chemical smiles | readout number
NS(=O)(=O)c1ccc(-n2nnc(-c3nnc(SCC(=O)c4ccc([N+](=O)[O-])cc4)[nH]3)c2-c2ccccc2)cc1 | 6.69
NC(=S)NNC(=O)c1nnn(-c2ccc(S(N)(=O)=O)cc2)c1-c1ccccc1 | 6.95
Cc1c(C(=O)NNC(N)=S)nnn1-c1ccc(S(N)(=O)=O)cc1 | 5.53
NS(=O)(=O)c1ccc(-n2nnc(-c3nnc(SCC(=O)c4cccc(Br)c4)[nH]3)c2-c2ccccc2)cc1 | 6.56
Cc1ccc(C(=O)CSc2nnc(-c3nnn(-c4ccc(S(N)(=O)=O)cc4)c3C)[nH]2)cc1 | 5.51
Cc1c(-c2nnc(SCC(=O)c3ccc(Br)cc3)[nH]2)nnn1-c1ccc(S(N)(=O)=O)cc1 | 5.55
Cc1c(-c2nnc(SCC(=O)c3ccc([N+](=O)[O-])cc3)[nH]2)nnn1-c1ccc(S(N)(=O)=O)cc1 | 5.51
NS(=O)(=O)c1ccc(-n2nnc(-c3n[nH]c(=S)[nH]3)c2-c2ccccc2)cc1 | 7.29
Cc1c(-c2nnc(SCC(=O)c3cccc([N+](=O)[O-])c3)[nH]2)nnn1-c1ccc(S(N)(=O)=O)cc1 | 5.61
NS(=O)(=O)c1ccc(-n2nnc(-c3nnc(SCC(=O)c4ccc(Cl)cc4)[nH]3)c2-c2ccccc2)cc1 | 6.32
Cc1c(-c2nnc(SCC(=O)c3ccc(-c4ccccc4)cc3)[nH]2)nnn1-c1ccc(S(N)(=O)=O)cc1 | 6.65
